Biological target: OATP1B1 (Homo sapiens, UniProt Q9Y6L6, N130D)
Sequence (Q9Y6L6 1-691 N130D): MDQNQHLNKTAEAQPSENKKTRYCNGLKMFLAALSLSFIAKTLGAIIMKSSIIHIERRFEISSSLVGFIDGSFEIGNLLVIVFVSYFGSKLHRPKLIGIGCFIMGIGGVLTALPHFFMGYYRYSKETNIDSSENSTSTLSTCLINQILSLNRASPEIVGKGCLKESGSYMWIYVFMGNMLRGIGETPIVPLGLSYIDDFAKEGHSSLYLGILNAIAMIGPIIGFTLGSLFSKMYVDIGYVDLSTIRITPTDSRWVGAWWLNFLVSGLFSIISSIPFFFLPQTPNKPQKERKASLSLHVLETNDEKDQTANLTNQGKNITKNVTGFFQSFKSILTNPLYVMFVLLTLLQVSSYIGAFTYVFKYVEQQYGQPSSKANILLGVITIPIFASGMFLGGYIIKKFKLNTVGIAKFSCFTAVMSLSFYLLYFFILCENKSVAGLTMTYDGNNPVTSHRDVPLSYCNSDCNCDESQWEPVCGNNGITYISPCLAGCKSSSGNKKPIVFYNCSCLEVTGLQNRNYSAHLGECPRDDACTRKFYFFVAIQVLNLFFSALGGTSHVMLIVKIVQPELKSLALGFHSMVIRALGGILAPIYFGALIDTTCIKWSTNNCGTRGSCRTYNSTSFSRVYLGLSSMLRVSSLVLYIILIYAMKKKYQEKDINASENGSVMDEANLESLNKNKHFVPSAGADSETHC
Assay: OATP1B1 inhibition, conventional RI method (radiolabeled estradiol-17β-D-glucuronide)
Each item that follows carries a reported Ki.
Kindly provide the numeric value in µM only, without the unit symbol.

Below, 4 molecules whose answers are already recorded.
molecule	testTarget	unitInfo	observedResult
C=CC[C@@H]1/C=C(\C)C[C@H](C)C[C@H](OC)[C@H]2O[C@@](O)(C(=O)C(=O)N3CCCC[C@H]3C(=O)O[C@H](/C(C)=C/[C@@H]3CC[C@@H](O)[C@H](OC)C3)[C@H](C)[C@@H](O)CC1=O)[C@H](C)C[C@@H]2OC [Tacrolimus]	OATP1B1 (Homo sapiens, UniProt Q9Y6L6, N130D)	µM	0.89
CC[C@H]1OC(=O)[C@H](C)[C@@H](O[C@H]2C[C@@](C)(OC)[C@@H](O)[C@H](C)O2)[C@H](C)[C@@H](O[C@@H]2O[C@H](C)C[C@H](N(C)C)[C@H]2O)[C@](C)(O)C[C@@H](C)C(=O)[C@H](C)[C@@H](O)[C@]1(C)O [Erythromycin]	OATP1B1 (Homo sapiens, UniProt Q9Y6L6, N130D)	µM	4.14
C[C@H](CCC(=O)NCCS(=O)(=O)O)[C@H]1CC[C@H]2[C@@H]3[C@H](O)C[C@@H]4C[C@H](O)CC[C@]4(C)[C@H]3C[C@H](O)[C@]12C [Taurocholic acid]	OATP1B1 (Homo sapiens, UniProt Q9Y6L6, N130D)	µM	17.5
CC(=O)N1CCN(c2ccc(OCC3COC(Cn4ccnc4)(c4ccc(Cl)cc4Cl)O3)cc2)CC1 (stereo not shown) [Ketoconazole]	OATP1B1 (Homo sapiens, UniProt Q9Y6L6, N130D)	µM	12.2

Now take the following molecule into account.
Would you kindly share the measured Ki for CO[C@H]1/C=C/O[C@@]2(C)Oc3c(C)c(O)c4c(O)c(c(/C=N/N5CCN(C)CC5)c(O)c4c3C2=O)NC(=O)/C(C)=C\C=C\[C@H](C)[C@H](O)[C@@H](C)[C@@H](O)[C@@H](C)[C@H](OC(C)=O)[C@@H]1C [Rifampicin, rifampicin] ? 0.29
